test system: Echinochloa crus-galli; experiment: Test Example 12: herbicidal effect test by treatment during growing period in paddy field; format: in vivo; conditions: 120 g/10a; treatment seven days after sowing in flooded paddy pot; assessed 14 days after treatment
Endpoint label: Weed suppression rate (%) Echinochloa crus-galli
Note: unit % is implicit; provide only the numeric part.

Give its Weed suppression rate (%) Echinochloa crus-galli value. Item: `Cc1cc(C)c(S(=O)(=O)n2ncn(C(=O)N(c3ccc(F)c(F)c3F)C(C)C)c2=O)c(C)c1`
80

Now consider `Cc1ccc(N(C(=O)n2cnn(S(=O)(=O)c3ccc(C(C)(C)C)cc3)c2=O)C(C)C)c(F)c1` .
90

# iterate: `CC(C)N(C(=O)n1cnn(S(=O)(=O)c2cccs2)c1=O)c1ccc(F)c(F)c1F`
100

Try this compound next: `Cc1cc(Cl)ccc1N(C(=O)n1cnn(S(=O)(=O)C(C)C)c1=O)C(C)C`
90

Also `CC(C)N(C(=O)n1cnn(S(=O)(=O)C2CC2)c1=O)c1c(F)c(F)cc(F)c1F` ?
100

One more compound: `CC(C)N(C(=O)n1cnn(S(=O)(=O)C(C)C)c1=O)c1c(F)cc(F)cc1F`
100

Try `CC(C)N(C(=O)n1cnn(S(=O)(=O)c2ccccc2F)c1=O)c1ccccc1F` next.
90

Queued: `CC(C)N(C(=O)n1cnn(S(=O)(=O)c2c(F)c(F)c(F)c(F)c2F)c1=O)c1ccc(F)cc1Cl`
100
